Target: ProLink tagged human CXCR4 (C2C12 CXCR4 β-Arrestin cell line) (human, UniProt P61073 1-352)
Sequence (P61073 whole entry): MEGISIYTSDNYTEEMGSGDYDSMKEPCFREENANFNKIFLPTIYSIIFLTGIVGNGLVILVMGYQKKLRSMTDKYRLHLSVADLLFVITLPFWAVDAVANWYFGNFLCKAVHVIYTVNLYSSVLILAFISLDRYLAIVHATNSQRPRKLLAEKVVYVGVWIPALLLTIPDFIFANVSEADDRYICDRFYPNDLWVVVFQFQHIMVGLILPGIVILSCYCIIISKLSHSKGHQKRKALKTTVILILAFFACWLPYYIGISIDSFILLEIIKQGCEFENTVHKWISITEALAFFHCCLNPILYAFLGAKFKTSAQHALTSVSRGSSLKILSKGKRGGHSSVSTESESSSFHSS
Assay: cell-based or functional assay
Square brackets hold non-standard residues; d marks the D form. Ends that are not written are not given here.
Assay Endpoint: IC50 for Inhibition of CXCR4 Activation (β-Arrestin recruitment) (nM)

Binder: LERYHHS[dA]RSSLRPFTK [SEQ ID NO: 61]
Censoring Qualifier: =
Recorded Result: 8

Binder: LRRYHHS[dA]RSSLRPYTK [SEQ ID NO: 6]
Censoring Qualifier: =
Recorded Result: 8

Binder: LRRFHHSVRSSLRPYTK [SEQ ID NO: 53]
Censoring Qualifier: =
Recorded Result: 3

Binder: HSVRSSLRPYTK [SEQ ID NO: 14]
Censoring Qualifier: >
Recorded Result: 1000

Binder: LERYHQSVRSSLRPYTK [SEQ ID NO: 51]
Censoring Qualifier: =
Recorded Result: 134

Binder: [dA]ERYHHSVRSSLRPYTK [SEQ ID NO: 34]
Censoring Qualifier: >
Recorded Result: 1000

Binder: LRRYHHSVDSSLRPYTK [SEQ ID NO: 66]
Censoring Qualifier: =
Recorded Result: 27

Binder: LERYNHSVRSSLRPYTK [SEQ ID NO: 42]
Censoring Qualifier: =
Recorded Result: 22

Binder: LERYHHT[dA]RSSLRPYTK [SEQ ID NO: 40]
Censoring Qualifier: =
Recorded Result: 5

Binder: LERYHHSVRSSLRPYT [SEQ ID NO: 18]
Censoring Qualifier: =
Recorded Result: 24

Binder: [dA]ERYHHS[dA]RSSLRPYTK [SEQ ID NO: 35]
Censoring Qualifier: =
Recorded Result: 291

Binder: LRRYHHSVRSTLRPYTK [SEQ ID NO: 71]
Censoring Qualifier: =
Recorded Result: 3

Binder: LRRYHHTVRSSLRPYTK [SEQ ID NO: 38]
Censoring Qualifier: =
Recorded Result: 3

Binder: LERYHHSVRSSLRP [SEQ ID NO: 20]
Censoring Qualifier: =
Recorded Result: 37

Binder: LERYHHS[dA]RSTLRPYTK [SEQ ID NO: 77]
Censoring Qualifier: =
Recorded Result: 4

Binder: LERYHHS[dA]RSSLRPYTK-NH2 (N-terminus assumed; SMILES CC(C)C[C@H](NC(=O)[C@H](CO)NC(=O)[C@H](CO)NC(=O)[C@H](CCCNC(=N)N)NC(=O)[C@@H](C)NC(=O)[C@H](CO)NC(=O)[C@H](Cc1c[nH]cn1)NC(=O)[C@H](Cc1c[nH]cn1)NC(=O)[C@H](Cc1ccc(O)cc1)NC(=O)[C@H](CCCNC(=N)N)NC(=O)[C@H](CCC(=O)O)NC(=O)[C@@H](N)CC(C)C)C(=O)N[C@@H](CCCNC(=N)N)C(=O)N1CCC[C@H]1C(=O)N[C@@H](Cc1ccc(O)cc1)C(=O)N[C@H](C(=O)N[C@@H](CCCCN)C(N)=O)[C@@H](C)O) [SEQ ID NO: 57]
Censoring Qualifier: =
Recorded Result: 33

Binder: LERYQHSVRSSLRPYTK [SEQ ID NO: 48]
Censoring Qualifier: =
Recorded Result: 53

Source of measurements: patent US20220395553A1
